- Tested on: UACC-257 melanoma
- protocol.summary: NCI tumour cell line growth inhibition, 48 h
experimental.readout: GI50

Reference set (6 entries):
* O=C(c1cccs1)c1c(C(F)(F)F)n([O-])c2ccc(Cl)cc2[n+]1=O | 0.614 µM
* CS(=O)(=O)OCCn1c2c(c3c(O)cccc31)C(=O)c1ccccc1-2 | > 100 µM
* CN(C)c1ccc(N=Nc2ccc(Br)cn2)c(O)c1 | 2.27 µM
* CCOC(=O)C#Cc1c(C(=O)OCC)nnn1Cc1ccc(C(F)(F)F)cc1 | 3.69 µM
* Cc1oc2nc[nH]c(=O)c2c1C(=O)/C=C/c1ccc(Br)cc1 | 2.37 µM
* CC(=O)O[C@H]1[C@@H]2OC(=O)C3(CC3)C2C[C@H]2O[C@]2(C)CC/C=C(\C)CCC[C@@H]1C (stereo partly drawn) | 43.4 µM

Task item: Kindly state the measured GI50 obtained for "NC(=O)c1cc(Cl)ccc1NC(=O)COc1ccccc1" with UACC-257 melanoma.
Reply: > 100 µM

Task item: Kindly state the measured GI50 obtained for CC(C)=C[C@@H]1C[C@H](C)[C@H]2CC[C@H](C)c3c(O)c(OC4OCC(O)C(O)C4O)c(C)c1c32 (stereo partly drawn) with UACC-257 melanoma.
Reply: 6.44 µM
